These measurements were taken from the Deep4Chem optical property database.

photoluminescence quantum yield by entry:
Assay: photoluminescence quantum yield (fraction); solvent given as SMILES
Conditions: in C1COCCO1
The answer should be written as a number, with no unit following it.

Entry COC(=O)/C=C/c1ccc2ccc3cccc4ccc1c2c34 : reported photoluminescence quantum yield = ?
0.55

Further cases:
Entry CCC1=C(C2=C(C3=C(CC)S(=O)(=O)c4cc(-c5ccc(C)s5)ccc43)C(F)(F)C(F)(F)C2(F)F)c2ccc(-c3ccc(C)s3)cc2S1(=O)=O : reported photoluminescence quantum yield = ?
0

Entry COC(=O)CNC(=O)c1nc2c(N(C)C)nc(N(C)C)nc2n1Cc1ccccc1 : reported photoluminescence quantum yield = ?
0.95

Entry N#Cc1cccc2c(N)c(-c3nn([C@H]4C[C@H](O)[C@@H](CO)O4)c4ncnc(N)c34)ccc12 : reported photoluminescence quantum yield = ?
0.47

Entry c1ccc(-c2ccc(-c3ccccc3)cc2)cc1 : reported photoluminescence quantum yield = ?
0.55

Entry CCCCCCN(c1ccccc1)c1ccc2c(c1)C(CC)(CC)c1cc(/C=C/c3ccc(/C=C(\C#N)C(=O)O)s3)ccc1-2 : reported photoluminescence quantum yield = ?
0.813

Entry COC(=O)c1ccc(/C=C2\C=C(c3ccc(OC)c(OC)c3)OC2=O)cc1 : reported photoluminescence quantum yield = ?
0.355

Entry NS(=O)(=O)c1ccc(N2N=C(c3ccc(O)cc3)CC2c2ccccc2)cc1 (stereo unspecified) : reported photoluminescence quantum yield = ?
0.63

Entry CCN(CC)c1ccc2cc(/C=C/C(=O)c3cc4ccc(N(CC)CC)cc4oc3=O)c(=O)oc2c1 : reported photoluminescence quantum yield = ?
0.58

Entry c1ccc(Nc2nc(Nc3ccccc3)nc(Nc3ccc4cc5ccccc5cc4c3)n2)cc1 : reported photoluminescence quantum yield = ?
0.62

Entry O=c1[nH]c(=O)n([C@@H]2O[C@H](CO)[C@@H](O)[C@H]2O)cc1-c1cc2ccccc2s1 : reported photoluminescence quantum yield = ?
0.06

----------
Assay: photoluminescence quantum yield (fraction); solvent given as SMILES
Conditions: in ClCCl
READOUT NAME: photoluminescence quantum yield
The answer should be written as a number, with no unit following it.

Answered examples (3):
Entry O=C1C2=C(O[B-](F)(F)[n+]3c2ccc2ccccc23)c2ccc(N3CCOCC3)c3cccc1c23 : reported photoluminescence quantum yield = ?
0.53

Entry CCCCCCOc1cc(N(CC)CC)ccc1/C=C/C(=C(C#N)C#N)c1ccc(N(c2ccccc2)c2ccccc2)cc1 : reported photoluminescence quantum yield = ?
0.178

Entry CN(C)c1ccc(C2=C3C=C(c4ccc(C#N)cc4)S[C@]34c3ccccc3[C@H]2c2ccccc24)cc1 : reported photoluminescence quantum yield = ?
0.76

Further cases:
Entry Cc1cc2ccccc2c2c1c1ccccc1n2C(=O)OC(C)(C)C : reported photoluminescence quantum yield = ?
0.185

Entry CC(C)(C)c1ccc(-c2c3cccc4c(-c5ccccc5)cc5c(-c6ccc(C(C)(C)C)cc6)c6cccc7c(-c8ccccc8)cc2c(c76)c5c43)cc1 : reported photoluminescence quantum yield = ?
0.26

Entry COC(=O)c1[nH]c(-c2ccccc2)c2nnc3ccc(OC)cc3c12 : reported photoluminescence quantum yield = ?
0.0207

Entry [O-][n+]1c(/C=C/c2ccc(/C=C/c3ccccc3)cc2)nc(N2CCOCC2)c2c1CCCC2 : reported photoluminescence quantum yield = ?
0.04

Entry CCC1=C(C)C2=C(c3c4ccccc4c(C)c4ccccc34)c3c(C)c(CC)c(C)n3[B-](F)(F)[N+]2=C1C : reported photoluminescence quantum yield = ?
0.667

Entry CC1=C(C#Cc2ccc(B(c3c(C)cc(C)cc3C)c3c(C)cc(C)cc3C)cc2)C(C)=[N+]2C1=C(c1ccccc1)c1c(C)c(C#Cc3ccc(B(c4c(C)cc(C)cc4C)c4c(C)cc(C)cc4C)cc3)c(C)n1[B-]2(F)F : reported photoluminescence quantum yield = ?
0.65

Entry COc1ccc(-c2cc3c(ccc4sc(/C=C/c5cccs5)cc43)s2)cc1 : reported photoluminescence quantum yield = ?
0.28

Entry CC(C)(C)c1ccc2c(c1)c1cc(C(C)(C)C)ccc1n2-c1ccc(C#Cc2ccc(C=O)cc2)cc1 : reported photoluminescence quantum yield = ?
0.1

Entry CSc1ccc(/C=C/c2cnc3ccccc3n2)cc1 : reported photoluminescence quantum yield = ?
0.02

----------
photoluminescence quantum yield by entry:
Experiment: photoluminescence quantum yield (fraction); solvent given as SMILES
Details: in CC#N
The answer should be written as a number, with no unit following it.

Answered examples (3):
Entry Cc1ccc(C2=[N+]3C(=Cc4ccc(C)n4[B-]3(F)F)c3ccccc32)[nH]1 : reported photoluminescence quantum yield = ?
0.8

Entry CCCSc1ccc2n1[B-](F)(F)[N+]1=C(SC#N)C=CC1=C2c1ccccc1 : reported photoluminescence quantum yield = ?
0.16

Entry CNc1cccc2c1-c1ccccc1C2=O : reported photoluminescence quantum yield = ?
0.0051

Further cases:
Entry CC(C)(C)c1ccc(C2=c3c(c4ccc(C(C)(C)C)cc4c4cc(C(C)(C)C)ccc34)=[N+]3C2=C(c2ccccc2)c2c(-c4ccc(C(C)(C)C)cc4)c4c5ccc(C(C)(C)C)cc5c5cc(C(C)(C)C)ccc5c4n2[B-]3(F)F)cc1 : reported photoluminescence quantum yield = ?
0.27

Entry COc1ccc(C#Cc2ccc(C#N)cc2)cc1 : reported photoluminescence quantum yield = ?
0.09

Entry F[B-]1(F)n2c(cc(-c3ccccc3)c2-c2ccccc2)C(c2ccccc2)=C2C=C(c3ccccc3)C(c3ccccc3)=[N+]21 : reported photoluminescence quantum yield = ?
0.34

Entry CCN(CC)c1ccc2cc(-c3cc(SC)c(C#N)c(=O)o3)c(=O)oc2c1 : reported photoluminescence quantum yield = ?
0.56

----------
photoluminescence quantum yield by entry:
Experiment: photoluminescence quantum yield (fraction); solvent given as SMILES
Settings: in C1COCCO1
The answer should be written as a number, with no unit following it.

Answered examples (8):
Entry c1ccc(C2CCN3COc4c5ccccc5c5c6c7c(c2c3c46)C(c2ccccc2)CCN7CO5)cc1 (configuration not stated) : reported photoluminescence quantum yield = ?
0.183

Entry O=C1/C(=C\c2ccc(N(c3ccccc3)c3ccccc3)cc2)S(=O)(=O)c2ccccc21 : reported photoluminescence quantum yield = ?
0.324

Entry O=C1NC(c2ccccc2)=N/C1=C\c1ccccc1 : reported photoluminescence quantum yield = ?
0.001

Entry c1ccc(-c2ccc(-c3cc(-c4ccc(-c5ccccc5)cc4)cc(-c4ccc(-c5ccccc5)cc4)c3)cc2)cc1 : reported photoluminescence quantum yield = ?
0.27

Entry CCCCCCCCC1(CCCCCCCC)c2cc(-c3ccc(C(F)(F)F)cc3)ccc2-c2ccc(N(c3ccc(-n4c5ccccc5c5ccccc54)cc3)c3ccc4c(c3)C(CCCCCCCC)(CCCCCCCC)c3cc(-c5ccc(C(F)(F)F)cc5)ccc3-4)cc21 : reported photoluminescence quantum yield = ?
0.71

Entry COc1ccc(C2=C/C(=C\c3ccc(C#N)cc3)C(=O)N2)cc1OC : reported photoluminescence quantum yield = ?
0.188

Entry N#Cc1nc2c(OCc3ccccc3)nc(N)nc2n1Cc1ccccc1 : reported photoluminescence quantum yield = ?
0.73

Entry CN1C(=O)/C(=C/c2ccncc2)N=C1/C=C/c1ccncc1 : reported photoluminescence quantum yield = ?
0.048

Now look at this entry.
Entry Nc1cc(N)cc(-c2nc3ccccc3s2)c1 : reported photoluminescence quantum yield = ?
0.06

----------
photoluminescence quantum yield by entry:
Assay: photoluminescence quantum yield (fraction); solvent given as SMILES
Details: in CO
The answer should be written as a number, with no unit following it.

Answered examples (3):
Entry CC1(C)CC(=O)C2=C(C1)Oc1ccc3cc(O)ccc3c1C2c1ccccn1 (stereo not drawn) : reported photoluminescence quantum yield = ?
0.066

Entry Clc1ccc(/C=C/c2nc3ccccc3s2)cc1 : reported photoluminescence quantum yield = ?
0.01

Entry Cc1ccc(C2=C3C=CC(c4ccccc4)=[N+]3[B-](F)(F)n3c2ccc3-c2ccccc2)cc1 : reported photoluminescence quantum yield = ?
0.21

Further cases:
Entry CCC1=C(C)c2cc3c(OC)cc(OC)cc3c(=O)n2C1=O : reported photoluminescence quantum yield = ?
0.44

Entry CN(C)c1ccc(C2=Cc3cccc[n+]3[B-](F)(F)O2)cc1 : reported photoluminescence quantum yield = ?
0.454

Entry [C-]#[N+]c1ccc(-c2ccc(N(C)C)cc2)cc1 : reported photoluminescence quantum yield = ?
0.15

Entry N[C@@H](Cn1nnc2cc(-c3ccc(N4CCOCC4)cc3)ccc21)C(=O)O : reported photoluminescence quantum yield = ?
0.004

Entry CCCCCCOc1ccc(-c2cnc(-c3nnc(-c4ccc(OCCCCCC)cc4)o3)o2)cc1 : reported photoluminescence quantum yield = ?
0.65

----------
Experiment: photoluminescence quantum yield (fraction); solvent given as SMILES
Conditions: in ClCCl
READOUT NAME: photoluminescence quantum yield

Entry CC(C)(C)NC(=O)c1ccc(-c2ccccc2)c2ccc3c4ccccc4c4ccccc4c3c12 : reported photoluminescence quantum yield = ?
0.08

Now look at this entry.
Entry COc1ccc(-c2cc(-c3ccc(C(F)(F)F)cc3)nn2C)cc1 : reported photoluminescence quantum yield = ?
0.2
